// data source = paper PMC7988117

- Test system: Staphylococcus aureus
- method summary: VITEK 2 antimicrobial sensitivity characterization; also: key: S, sensitive; I, intermediate; R, resistant
- Type: cell-based
- setup conditions: S. aureus ATCC 33591; VITEK 2 system, CLSI ranges
measured metric: VITEK characterization (resistance range)

Below, each entry is followed by its recorded VITEK characterization (resistance range) result.
compound	readout value
CN(C)[C@@H]1C(O)=C(C(N)=O)C(=O)[C@@]2(O)C(O)=C3C(=O)c4c(O)cccc4[C@@](C)(O)[C@H]3C[C@@H]12 [TET, tetracycline]	R
C[C@@H](O)[C@H]1C(=O)N2C(C(=O)O)=C(SCCN=CN)C[C@H]12 [IMP, imipenem]	R
CN[C@H](CC(C)C)C(=O)N[C@H]1C(=O)N[C@@H](CC(N)=O)C(=O)N[C@H]2C(=O)N[C@H]3C(=O)N[C@H](C(=O)N[C@H](C(=O)O)c4cc(O)cc(O)c4-c4cc3ccc4O)[C@H](O)c3ccc(c(Cl)c3)Oc3cc2cc(c3O[C@@H]2O[C@H](CO)[C@@H](O)[C@H](O)[C@H]2O[C@H]2C[C@](C)(N)[C@H](O)[C@H](C)O2)Oc2ccc(cc2Cl)[C@H]1O [VAN, vancomycin]	S
CC[C@H]1OC(=O)[C@H](C)[C@@H](O[C@H]2C[C@@](C)(OC)[C@@H](O)[C@H](C)O2)[C@H](C)[C@@H](O[C@@H]2O[C@H](C)C[C@H](N(C)C)[C@H]2O)[C@](C)(O)C[C@@H](C)C(=O)[C@H](C)[C@@H](O)[C@]1(C)O [ERY, erythromycin]	R
Cc1onc(-c2ccccc2)c1C(=O)N[C@@H]1C(=O)N2[C@@H]1SC(C)(C)[C@@H]2C(=O)O [OXA, oxacillin]	R

Attention now shifts to the item below.
Prompt: Request the reported VITEK characterization (resistance range) associated with CCC[C@@H]1C[C@@H](C(=O)N[C@@H]([C@H]2O[C@H](SC)[C@H](O)[C@@H](O)[C@H]2O)[C@H](C)Cl)N(C)C1 [CLI, clindamycin]
Response: R
